# Test system: HPV-31 (strain: HQ53768.1)
# ASSAY DETAILS: HPV-31 genome plasmid replication assay in C-33 A cells
# Assay type: cell-based, human papillomavirus
# SETUP CONDITIONS: Human papillomavirus, host cell line C-33A
MEASUREMENT LABEL: EC50 (µM)
Form entry: value (µM) — number only.

Entry Nc1nc2c(ncn2CCOCP(=O)(O)O)c(=O)[nH]1 [9-[2-(phosphono-methoxy)-ethyl]guanine, reference compound] has what EC50?
3.92

The measurements presented in this section are drawn from patent US12485127B2.
